System under test: amaranthin (Amaranthus caudatus, UniProt Q71QF2)
Sequence (Q71QF2 entry or part of it): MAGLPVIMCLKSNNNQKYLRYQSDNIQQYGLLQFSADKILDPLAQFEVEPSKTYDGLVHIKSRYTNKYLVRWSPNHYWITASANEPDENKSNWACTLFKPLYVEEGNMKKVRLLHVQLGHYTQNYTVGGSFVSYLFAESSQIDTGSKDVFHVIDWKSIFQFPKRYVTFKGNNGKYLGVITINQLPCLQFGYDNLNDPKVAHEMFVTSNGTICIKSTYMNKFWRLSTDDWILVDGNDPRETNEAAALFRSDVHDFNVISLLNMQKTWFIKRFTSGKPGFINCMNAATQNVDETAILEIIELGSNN
Method description: Hapten inhibition of amaranthin/asialo-ovine submaxillary mucin precipitation
Type: binding
Reported conditions: N-Acetylgalactosamine = 1
Protocol: Precipitation assays were conducted in 1.5 ml centrifuge tubes by the method of So and Goldstein. Indicated amounts of glycoprotein were added to 80 μg of amaranthin, and the total volume was adjusted to 250 μl with phosphate buffered saline. […] The precipitates were centrifuged, washed with cold Phosphate buffered saline, dissolved in 0.05 N NaOH and analyzed for protein by the method of Lowery et al. using bovine serum albumin as the standard. […]
Measure: Relative Inhibition potency ACA

Use these answered entries as a reference point.
Compound | Result
C[C@H]1OC(O)[C@H](O)[C@@H](O)[C@H]1O (stereo partly drawn) | < 0.002
CC(=O)N[C@H]1C(O)O[C@H](CO)[C@@H](O[C@@H]2O[C@H](CO)[C@H](O)[C@H](O)[C@H]2O)[C@@H]1O (stereo partly drawn) | < 0.008

Task: Look up Relative Inhibition potency ACA for this compound: COC(=O)CCCCCCCCO[C@H]1O[C@H](CO)[C@H](O)[C@H](O[C@@H]2O[C@H](CO)[C@H](O)[C@H](O[C@]3(C(=O)O)C[C@H](O)[C@@H](NC(C)=O)[C@H]([C@H](O)[C@H](O)CO)O3)[C@H]2O)[C@H]1NC(C)=O
Result: 439

---

System under test: amaranthin (Amaranthus caudatus, UniProt Q71QF2)
Method description: Hapten inhibition of amaranthin/asialo-ovine submaxillary mucin precipitation
Assay type: binding
Reported conditions: N-Acetylgalactosamine = 1
Method: Precipitation assays were conducted in 1.5 ml centrifuge tubes by the method of So and Goldstein. Indicated amounts of glycoprotein were added to 80 μg of amaranthin, and the total volume was adjusted to 250 μl with phosphate buffered saline. […] The precipitates were centrifuged, washed with cold Phosphate buffered saline, dissolved in 0.05 N NaOH and analyzed for protein by the method of Lowery et al. using bovine serum albumin as the standard. […]
Measure: Relative Inhibition potency ACA
Answer as a number with no unit attached.

Compound | Quantitative result
CC(=O)N[C@H]1[C@@H](OCc2ccccc2)O[C@H](CF)[C@H](O)[C@@H]1O[C@@H]1O[C@H](CO)[C@H](O)[C@H](O)[C@H]1O [Galβ1,3[6-F]GalNAcα-O-benzyl] | 465
CC(=O)N[C@H]1[C@@H](OC[C@H]2OC(O)[C@H](O)[C@@H](O)[C@H]2O)O[C@H](CO)[C@H](O)[C@@H]1O (some centres unmarked) | 3.8
CC(=O)N[C@H]1[C@@H](OCc2ccccc2)O[C@H](CO)[C@H](O)[C@@H]1O[C@@H]1O[C@H](CO)[C@H](O)[C@H](O)[C@H]1O | 494

Task: If you can, please state the reported Relative Inhibition potency ACA value of CC(=O)N[C@H]1[C@@H](Oc2ccccc2[N+](=O)[O-])O[C@H](CO)[C@H](O)[C@@H]1O[C@@H]1O[C@H](CO)[C@H](O)[C@H](O)[C@H]1O .
Result: 376

Task: Entry CC(=O)N[C@H]1[C@@H](OCc2ccccc2)O[C@H](CO)[C@H](O)[C@@H]1O[C@@H]1O[C@H](C)[C@H](O)[C@H](O)[C@H]1O : reported Relative Inhibition potency ACA = ?
Result: 416

Task: // returns reported Relative Inhibition potency ACA for input COC(=O)CCCCCCCCO[C@H]1O[C@H](CO)[C@H](O)[C@H](O[C@@H]2O[C@H](CO)[C@H](O)[C@H](O)[C@H]2O)[C@H]1NC(C)=O
Result: 439

Task: Return reported Relative Inhibition potency ACA; argument: CC(=O)N[C@H]1CO[C@H](CO)[C@H](O)[C@@H]1O[C@@H]1O[C@H](CO)[C@H](O)[C@H](O)[C@H]1O
Result: 136
